# system tested: Jun bZIP K273A;Fos bZIP R157A (human;human, UniProt P05412;P01100 252-315;137-200, K273A|R157A)
# Sequence (P05412 252-315 K273A, chain 1 of 2): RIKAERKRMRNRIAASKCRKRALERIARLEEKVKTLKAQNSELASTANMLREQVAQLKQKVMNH
# Sequence (P01100 137-200 R157A, chain 2 of 2): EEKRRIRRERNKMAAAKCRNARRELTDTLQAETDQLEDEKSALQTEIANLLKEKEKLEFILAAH
# experiment description: ITC
pKd: −log10 of the molar value.
attribute measured: pKd

[[record]]
binder = "TRE duplex 15-mer (dsDNA) DNA 1: CGCGTGACTCACCCC DNA 2: GGGGTGAGTCACGCG"
value_measured = 5.89

